System: DMS 273 small cell lung
Assay: NCI tumour cell line growth inhibition, 48 h
reported.endpoint: TGI

Qu. Reported TGI for COC(=O)C1=CCC2c3[nH]c4ccccc4c3CCN2C1 (stereo unspecified) : what is it?
Ans. > 354 µM

Qu. Reported TGI for O=C(CC1(O)C(=O)Nc2ccccc21)c1ccccc1O (stereo unspecified) : what is it?
Ans. > 100 µM

Qu. Reported TGI for N#Cc1cccc(C2C(=O)c3ccc(C(=O)c4ccc5c(c4)C(=O)N(c4ccc(Oc6ccc(N7C(=O)c8ccc(C(=O)c9ccc%10c(c9)C(=O)N(c9cccc(C#N)c9)C%10=O)cc8C7=O)cc6)cc4)C5=O)cc3C2=O)c1 (stereo unspecified) : what is it?
Ans. > 100 µM
